Measured Fold change to WT CD80 of individual entries
Molecular target: CTLA4 (human)
Sequence (chain, as listed by the source): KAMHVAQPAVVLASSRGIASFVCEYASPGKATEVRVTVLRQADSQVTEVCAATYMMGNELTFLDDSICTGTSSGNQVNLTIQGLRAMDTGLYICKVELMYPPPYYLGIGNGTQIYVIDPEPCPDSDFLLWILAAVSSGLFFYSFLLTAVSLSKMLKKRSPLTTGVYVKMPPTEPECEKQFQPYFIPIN
Experiment: flow cytometry, CHO cells stably expressing CTLA4

{"binder": "CD80 variant V22A/R29H/E35D/D46E/M47I IgV-Fc (Fc fusion) VIHVTKEVKEVATLSCGHNVSAEELAQTHIYWQKDKKMVLTMMSGEINIWPEYKNRTIFDITNNLSIVILALRPSDEGTYECVVLKYEKDAFKREHLAEVT", "Fold change to WT CD80 (fold)": 0.43}
{"binder": "CD80 variant E35D/M47I/E77A/L85Q/R94W IgV-Fc (Fc fusion) VIHVTKEVKEVATLSCGHNVSVEELAQTRIYWQKDKKMVLTMMSGDINIWPEYKNRTIFDITNNLSIVILALRPSDAGTYECVVQKYEKDAFKWEHLAEVT", "Fold change to WT CD80 (fold)": 1.38}
{"binder": "CD80 variant H18Y/E35D/V68M/L97Q IgV-Fc (Fc fusion) VIHVTKEVKEVATLSCGYNVSVEELAQTRIYWQKDKKMVLTMMSGDMNIWPEYKNRTIFDITNNLSIMILALRPSDEGTYECVVLKYEKDAFKREHQAEVT", "Fold change to WT CD80 (fold)": 0.97}
{"binder": "CD80 variant Q33L/E35D/N48K/L85Q/L97Q IgV-Fc (Fc fusion) VIHVTKEVKEVATLSCGHNVSVEELAQTRIYWLKDKKMVLTMMSGDMKIWPEYKNRTIFDITNNLSIVILALRPSDEGTYECVVQKYEKDAFKREHQAEVT", "Fold change to WT CD80 (fold)": 0.01}
